Molecular target: FmlHLD (Escherichia coli)
Construct: 6xHis (C); made in house; host or cells: E. coli C600, periplasm, pTRC99a
Sequence (P77588 25-182): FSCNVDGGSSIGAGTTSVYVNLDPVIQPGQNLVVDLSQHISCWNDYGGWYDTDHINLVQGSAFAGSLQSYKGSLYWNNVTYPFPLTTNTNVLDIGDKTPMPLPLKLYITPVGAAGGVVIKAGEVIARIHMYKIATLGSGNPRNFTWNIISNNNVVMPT
Assay: biochemical
Type: binding, E. coli
Conditions: IC50 (μM), Table 5; Gal and GalNAc inhibition of FmlH
Protocol: Thereafter, wells were incubated with 200 μl blocking buffer (PBS+1% BSA) for 2 hours at 23° C., followed by incubation with 100 μl biotinylated FmlHLD diluted in blocking buffer to 20 μg/ml in the presence or absence of the tested compounds for 1 hr at 23° C. […] After a final round of washing, plates were developed with 100 μl Tetramethylbenzidine (TMB, BD Biosciences) substrate, quenched within 1-2 min with 50 μl […], and absorbance measured at 450 nm. […]
Label True when IC50 < 2 µM; otherwise False.

> print(dat)
                                    compound          target.under.test  qualitative.label
 1  CC(=O)N[C@H]1[C@H](Oc2ccccc2-c2cccc(C#N)c2)O[C@H](CO)[C@H](O)[C@@H]1O  FmlHLD (Escherichia coli)               True
 2  CC(=O)N[C@H]1[C@H](Oc2ccccc2-c2cccc(F)c2)O[C@H](CO)[C@H](O)[C@@H]1O  FmlHLD (Escherichia coli)               True
 3  CC(=O)N[C@H]1[C@H](Oc2ccccc2-c2cccc(C(F)(F)F)c2)O[C@H](CO)[C@H](O)[C@@H]1O  FmlHLD (Escherichia coli)               True
 4  COc1ccc(O)cc1-c1ccccc1O[C@@H]1O[C@H](CO)[C@H](O)[C@H](O)[C@H]1NC(C)=O  FmlHLD (Escherichia coli)               True
 5  CC(=O)N[C@H]1[C@H](Oc2ccccc2-c2cccc(C(=O)O)c2)O[C@H](CO)[C@H](O)[C@@H]1O  FmlHLD (Escherichia coli)               True
 6  CC(=O)N[C@H]1[C@H](Oc2ccccc2-c2cccc(NS(=O)(=O)C(F)(F)F)c2)O[C@H](CO)[C@H](O)[C@@H]1O  FmlHLD (Escherichia coli)               True
 7  CS(=O)(=O)Nc1cccc(-c2ccccc2O[C@@H]2O[C@H](CO)[C@H](O)[C@H](O)[C@H]2O)c1  FmlHLD (Escherichia coli)               True
 8  CC(=O)N[C@H]1[C@H](Oc2ccccc2-c2cccc(NS(C)(=O)=O)c2)O[C@H](CO)[C@H](O)[C@@H]1O  FmlHLD (Escherichia coli)               True
 9  COc1ccc(C(=O)O)cc1-c1ccccc1O[C@@H]1O[C@H](CO)[C@H](O)[C@H](O)[C@H]1NC(C)=O  FmlHLD (Escherichia coli)              False
10  COc1ccc(OS(C)(=O)=O)cc1-c1ccccc1O[C@@H]1O[C@H](CO)[C@H](O)[C@H](O)[C@H]1NC(C)=O  FmlHLD (Escherichia coli)              False
11  CC(=O)N[C@H]1[C@H](Oc2ccccc2-c2cccc(OS(C)(=O)=O)c2)O[C@H](CO)[C@H](O)[C@@H]1O  FmlHLD (Escherichia coli)               True
12  COC(=O)Nc1cccc(-c2ccccc2O[C@@H]2O[C@H](CO)[C@H](O)[C@H](O)[C@H]2NC(C)=O)c1  FmlHLD (Escherichia coli)               True
13  CC(=O)N[C@@H]1[C@H](Oc2ccccc2-c2cccc(NC(=O)C(F)(F)F)c2)OC(CO)[C@H](O)[C@@H]1O (some centres unmarked)  FmlHLD (Escherichia coli)               True
14  CC(=O)N[C@H]1[C@H](Oc2ccccc2-c2cccc(C(N)=O)c2)O[C@H](CO)[C@H](O)[C@@H]1O  FmlHLD (Escherichia coli)               True
15  CC(=O)N[C@H]1[C@H](Oc2ccccc2-c2cccc(C(=O)N(C)C)c2)O[C@H](CO)[C@H](O)[C@@H]1O  FmlHLD (Escherichia coli)              False
16  CC(=O)N[C@H]1[C@H](Oc2ccccc2-c2cccc([N+](=O)[O-])c2)O[C@H](CO)[C@H](O)[C@@H]1O  FmlHLD (Escherichia coli)              False

Data credit: patent US11773127B2
